Attribution: patent US20220024882A1

- System: PC-3 PIP/flu tumor-bearing mice
- PROTOCOL: Biodistribution study in PC-3 PIP/flu tumor-bearing mice
- Type: in vivo, athymic nude Balb/c mice
- SETUP CONDITIONS: 24 h p.i., PC-3 PIP/flu tumor-bearing mice
Hi there, I'd appreciate the recorded Lung for every entry that follows.
Answers are plain numbers, in % IA/g.

CC(C)Cc1ccc(C(C)C(=O)NC(CCN)C(=O)NCCCCC(NC(=O)CN2CCN(CC(=O)O)CCN(CC(=O)O)CCN(CC(=O)O)CC2)C(=O)NCC2CCC(C(=O)NC(Cc3ccc4ccccc4c3)C(=O)NCCCCC(NC(=O)NC(CCC(=O)O)C(=O)O)C(=O)O)CC2)cc1 (stereo not drawn) [^177Lu-Ibu-DAB-PSMA, metal not drawn]
0.21
CC(C)Cc1ccc(C(C)C(=O)NC(CC(=O)NCCCCC(NC(=O)CN2CCN(CC(=O)O)CCN(CC(=O)O)CCN(CC(=O)O)CC2)C(=O)NCC2CCC(C(=O)NC(Cc3ccc4ccccc4c3)C(=O)NCCCCC(NC(=O)NC(CCC(=O)O)C(=O)O)C(=O)O)CC2)C(=O)O)cc1 (stereo not drawn) [^177Lu-Ibu-Dβ-PSMA, metal not drawn]
1.17

CC(C)Cc1ccc(C(C)C(=O)NCC[C@H](NC(=O)CN2CCN(CC(=O)O)CCN(CC(=O)O)CCN(CC(=O)O)CC2)C(=O)NCC2CCC(C(=O)N[C@@H](Cc3ccc4ccccc4c3)C(=O)NCCCC[C@H](NC(=O)N[C@@H](CCC(=O)O)C(=O)O)C(=O)O)CC2)cc1 (stereo partly drawn) [^177Lu-Ibu-sPSMA, metal not drawn] has a reported Lung of 0.79

---

Field: Liver. Provide a value for each of the compounds that follow.
- System: PC-3 PIP/flu tumor-bearing mice
- PROTOCOL: Biodistribution study in PC-3 PIP/flu tumor-bearing mice
- Assay type: in vivo, athymic nude Balb/c mice
- SETUP CONDITIONS: 24 h p.i., PC-3 PIP/flu tumor-bearing mice
- Description: In vivo experiments were approved by the local veterinarian department and conducted in accordance with the Swiss law of animal protection. Mice were obtained from Charles River Laboratories, Sulzfeld, Germany, at the age of 5-6 weeks. […] Biodistribution studies were performed 12-15 days after PC-3 PIP/flu tumor cell inoculation. […] Selected tissues and organs were collected, weighed and measured using a γ-counter. […]
Give bare numbers, in % IA/g.

CC(C)Cc1ccc(C(C)C(=O)NC(CC(=O)NCCCCC(NC(=O)CN2CCN(CC(=O)O)CCN(CC(=O)O)CCN(CC(=O)O)CC2)C(=O)NCC2CCC(C(=O)NC(Cc3ccc4ccccc4c3)C(=O)NCCCCC(NC(=O)NC(CCC(=O)O)C(=O)O)C(=O)O)CC2)C(=O)O)cc1 (stereo not shown) [^177Lu-Ibu-Dβ-PSMA, metal not drawn]
0.69
CC(C)Cc1ccc(C(C)C(=O)NCCCCC(NC(=O)CN2CCN(CC(=O)O)CCN(CC(=O)O)CCN(CC(=O)O)CC2)C(=O)NCC2CCC(C(=O)NC(Cc3ccc4ccccc4c3)C(=O)NCCCCC(NC(=O)NC(CCC(=O)O)C(=O)O)C(=O)O)CC2)cc1 (stereo not shown) [^177Lu-Ibu-PSMA, metal not drawn]
0.91
CC(C)Cc1ccc(C(C)C(=O)NCC[C@H](NC(=O)CN2CCN(CC(=O)O)CCN(CC(=O)O)CCN(CC(=O)O)CC2)C(=O)NCC2CCC(C(=O)N[C@@H](Cc3ccc4ccccc4c3)C(=O)NCCCC[C@H](NC(=O)N[C@@H](CCC(=O)O)C(=O)O)C(=O)O)CC2)cc1 (stereo partly shown) [^177Lu-Ibu-sPSMA, metal not drawn]
0.81

With those in mind, consider the next compound.
Form field Liver, entry CC(C)Cc1ccc(C(C)C(=O)NC(CC(=O)O)C(=O)NCCCCC(NC(=O)CN2CCN(CC(=O)O)CCN(CC(=O)O)CCN(CC(=O)O)CC2)C(=O)NCC2CCC(C(=O)NC(Cc3ccc4ccccc4c3)C(=O)NCCCCC(NC(=O)NC(CCC(=O)O)C(=O)O)C(=O)O)CC2)cc1 (stereo not shown) [^177Lu-Ibu-Dα-PSMA, metal not drawn] : 0.37
